# System: MOLT-4 leukemia
# Assay notes: NCI tumour cell line growth inhibition, 48 h
TGI overview
Result type: TGI

Molecule	Result type	Observed result
O=C1c2ccccc2-c2ccc(N(Cc3ccc(Br)cc3)Cc3ccc(Br)cc3)cc21	TGI	> 100 µM
O=C1NC(c2ccccc2)C1N(Cc1ccccc1)Cc1ccccc1 (stereo unspecified)	TGI	> 100 µM
C=C1C(=O)C23C(O)C1CCC2C12CO[C@]3(O)[C@@H](O)C1C(C)(C)CCC2O (stereo partly specified)	TGI	> 38.9 µM
COC(=O)[C@H]1[C@H](OC(=O)[C@@H](OC)c2ccccc2)ON2CC[C@@H](OC(=O)c3ccccc3)[C@H]12	TGI	> 100 µM
O=C1C2=Cc3ccccc3CCN2c2ccc([N+](=O)[O-])cc21	TGI	> 100 µM
CN(C)c1ccc(C=Nc2ccc(-c3nc4ccccc4o3)cc2)cc1	TGI	78.8 µM
Oc1ccc(-c2nc(-c3ccc(F)cc3)c(-c3ccncc3)[nH]2)cc1	TGI	32.5 µM
O=C(CCl)Nc1ccc(-c2nc3ccccc3s2)cc1	TGI	12.8 µM
CCCCCNC(=O)C1C(=O)N(CCCCC)C(=O)/C1=N\N (stereo unspecified)	TGI	> 100 µM
CC(C)Cn1cnnc1NS(=O)(=O)c1cc(C(=O)NN)c(Cl)cc1S	TGI	> 10 µM
COc1cc2c(cc1OCCCN1CCN(CCCOc3cc4c(cc3OC)C(=O)C3CCC[C@H]3C=N4)CC1)N=C[C@@H]1CCCC1C2=O (stereo partly specified)	TGI	2.53 µM
COc1ccc(OC)c(CC(=O)c2ccc(O)c(C(=O)NCCc3ccc(F)cc3)c2)c1	TGI	17.4 µM
Cn1c(=O)c2c(nc3n2C(CCl)CO3)n(C)c1=O (stereo unspecified)	TGI	> 100 µM
COc1ccc(-c2c(C(=O)Nc3ccccc3)c(-c3ccccc3)n(C3OC(CO)C(O)C(O)C3O)c(=S)c2C#N)cc1 (stereo unspecified)	TGI	> 100 µM
COC(=O)C1(C)CCc2c(ccc3ccccc23)C1=O (stereo unspecified)	TGI	> 100 µM
COc1ccccc1NS(=O)(=O)c1cc(C(C)(C)C)ccc1OCCOc1ccc(C(C)(C)C)cc1S(=O)(=O)Nc1ccccc1OC	TGI	> 100 µM
NC1=NC(=O)[C@H](CSCc2ccccc2)N1C(=O)OCc1ccccc1	TGI	> 100 µM
CC1OC(OC2C(OC3CCC4(C)C(CCC5(C)C4CC=C4C6CC(C)(C)CCC6(CO)C(O)CC45C)C3(C)C)OC(C(=O)O)C(OC3OC(COC4OC(CO)C(O)C(O)C4O)C(O)C(O)C3O)C2O)C(O)C(O)C1O (stereo unspecified)	TGI	8.42 µM
CC(=O)[CH-]C(=O)c1ccccc1.CC(=O)[CH-]C(=O)c1ccccc1.[O-]Cc1cccs1.[O-]Cc1cccs1.[Ti+4]	TGI	> 100 µM
Cc1ccc2c(c1)C(=O)c1ccc(C)nc1C2=O	TGI	> 100 µM
COc1ccc(C2=NN(c3ccc(S(N)(=O)=O)cc3)C(c3ccc(Cl)cc3)C2)c(O)c1 (stereo unspecified)	TGI	5.07 µM

* * *

# System: OVCAR-4 ovarian
# Assay notes: NCI tumour cell line growth inhibition, 48 h
Recorded TGI by entry
Result type: TGI

>>> print(df.to_string())
                                   compound     assay_system  observed_result
0             COc1ccc(C(=O)Nc2ccccc2C#N)cc1  OVCAR-4 ovarian         > 100 µM
1  COc1ccc(/C=N/Nc2nc3ccccc3c(=O)n2-c2ccccc2)cc1  OVCAR-4 ovarian         > 100 µM
2    COc1cc2c(c(Br)c1N)-c1cc(Br)c(N)cc1C2=O  OVCAR-4 ovarian         > 100 µM

# credit: PubChem BioAssay (NCI)
